The binders listed here are annotated with their Kd.
- targetOrTestSystem: T1, EsCas13d, nuclease-dead (Eubacterium siraeum, UniProt B0MS50, R295A;H300A;R849A;H854A)
- T1 sequence: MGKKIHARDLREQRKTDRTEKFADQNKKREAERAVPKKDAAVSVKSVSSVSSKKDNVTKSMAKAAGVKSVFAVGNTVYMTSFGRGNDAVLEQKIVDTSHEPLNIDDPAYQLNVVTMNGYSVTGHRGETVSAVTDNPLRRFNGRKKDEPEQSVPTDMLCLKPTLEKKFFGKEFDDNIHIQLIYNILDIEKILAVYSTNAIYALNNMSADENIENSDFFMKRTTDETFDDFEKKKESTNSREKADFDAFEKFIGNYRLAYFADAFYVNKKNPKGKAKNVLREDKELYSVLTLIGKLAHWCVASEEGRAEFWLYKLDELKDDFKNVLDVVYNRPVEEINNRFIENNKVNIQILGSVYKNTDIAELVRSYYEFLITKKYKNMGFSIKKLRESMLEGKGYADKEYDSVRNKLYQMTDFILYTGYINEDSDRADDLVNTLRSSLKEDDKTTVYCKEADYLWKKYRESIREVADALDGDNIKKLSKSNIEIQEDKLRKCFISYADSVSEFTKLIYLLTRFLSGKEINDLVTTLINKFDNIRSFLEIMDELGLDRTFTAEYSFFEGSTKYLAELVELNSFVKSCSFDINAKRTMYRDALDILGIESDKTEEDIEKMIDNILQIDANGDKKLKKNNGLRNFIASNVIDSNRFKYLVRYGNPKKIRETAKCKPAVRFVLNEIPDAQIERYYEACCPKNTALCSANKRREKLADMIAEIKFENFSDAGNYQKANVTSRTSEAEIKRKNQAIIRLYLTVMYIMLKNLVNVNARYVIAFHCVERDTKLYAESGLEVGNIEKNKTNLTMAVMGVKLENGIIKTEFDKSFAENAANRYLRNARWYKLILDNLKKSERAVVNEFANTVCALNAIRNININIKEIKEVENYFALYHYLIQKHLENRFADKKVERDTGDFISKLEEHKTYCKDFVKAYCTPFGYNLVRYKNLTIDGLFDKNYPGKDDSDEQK
- assayMethodText: crRNA (strand 1, pre-loaded); Mg2+; 40 mM Tris-HCl pH 7.5, 150 mM NaCl, 6 mM MgCl2, 1 mM DTT, 0.1% Tween-20, 0.2 mg/ml BSA; 25 C; 10 min per concentration, then washed
- particulars: tags: His6-TwinStrep-SUMO cleaved; N-terminal SNAP kept (SNAP-Surface 488); label: 3' end held by stalled T7 RNA polymerase
Output spec: scalar in nM, unitless text.

• target 2 MT 5'PFS UUG 3'PFS ACC (mixed) RNA 1: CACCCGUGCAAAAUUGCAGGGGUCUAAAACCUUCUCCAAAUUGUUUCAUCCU RNA 2: GGGAAUGGAUCCACAUCUACGAAUUCUUGAGGAUGAAACAAUUUGGAGAAGACCAGAUCGGAAGAGCACACGU = 47

We now examine a further binder.
// query Value lookup for Kd; key = target 1 A9G,U19A (mixed) RNA 1: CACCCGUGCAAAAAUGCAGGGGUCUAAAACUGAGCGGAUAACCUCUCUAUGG RNA 2: GGGAAUGGAUCCACAUCUACGAAUUCGUACCAAAGAGAGGUUGUCCGCUCACCGAGAUCGGAAGAGCACACGU
// result 44
